Reference source: PubChem BioAssay (NCATS)

# procedure_details: Quantitative High-Throughput drug screen in 47 multiple myeloma cell lines against the NCATS MIPE library collection: KMS34_JCRB cell viability assay (AID 1918985); note: nearly all actives have a fitted effect of over 40% in size; note: potency is the fitted concentration of half-maximal effect
# condition_description: KMS34 myeloma viability, CellTiter-Glo ATP luminescence, 48 h; series mostly up to 45.8 µM
Records with an inconclusive call do not appear. The source made the active and inactive calls. Calls come from the whole dose curve; as a rule, active = well fitted cell-killing curve with a large enough effect; inconclusive = small, poorly fitted or top-dose-only effect, or effect the other way; inactive = no such curve, though single readings can be large or run the other way.
observation_type: Potency

molecule=N#Cc1c(NC(=O)c2cccc3ccccc23)sc2c1CCCC2 observation_type=Potency reported_result="296 nM (active)"
molecule="Nc1cccc2c1C(=O)N(C1CCC(=O)NC1=O)C2=O (stereo not given)" observation_type=Potency reported_result="2.1 nM (active)"
molecule=Nc1nc(N)c2nc(-c3cccc(O)c3)c(-c3cccc(O)c3)nc2n1 observation_type=Potency reported_result="14800 nM (active)"
molecule=Cn1cc(C=CC(=O)c2cccc(F)c2)cc1C=CC(=O)NO observation_type=Potency reported_result="16600 nM (active)"
molecule=N#CC(=C(N)Sc1ccc(N)cc1)c1ccccc1C(F)(F)F observation_type=Potency reported_result=inactive
molecule=CCNC(=O)c1cc2c(-c3cc(OCCN4CCCC4)c(Cl)cc3Cl)nc(N)nc2s1 observation_type=Potency reported_result="1320 nM (active)"
molecule=O=C1c2c(O)cccc2[C@@H]([C@@H]2O[C@H](CO)[C@@H](O)[C@H](O)[C@H]2O)c2cc(CO)cc(O)c21 observation_type=Potency reported_result=inactive
molecule=COc1cc(OC)c(NC(=O)Nc2cc(C)on2)cc1Cl observation_type=Potency reported_result=inactive
molecule=CCOC(=O)N1CCN([N+]([O-])=NOc2ccc([N+](=O)[O-])cc2C#N)CC1 observation_type=Potency reported_result="526 nM (active)"
molecule=Nc1nc(=O)n([C@H]2C[C@H](O)[C@@H](CO)O2)cc1F observation_type=Potency reported_result="2.6 nM (active)"

----------
# procedure_details: Quantitative High-Throughput drug screen in 47 multiple myeloma cell lines against the NCATS MIPE library collection: RPMI8226_ATCC cell viability assay (AID 1919871); note: nearly all actives have a fitted effect of over 30% in size; note: potency is the fitted concentration of half-maximal effect
# condition_description: RPMI8226 myeloma viability, CellTiter-Glo ATP luminescence, 48 h; series mostly up to 45.8 µM
Results filed as inconclusive are left out. Activity calls are given as the source filed them. The call rests on the fitted dose curve; in most records, active means well fitted cell-killing curve with a large enough effect; inconclusive means small, poorly fitted or top-dose-only effect, or effect the other way; inactive means no such curve, though single readings can be large or run the other way.
observation_type: Potency

compound=CC(C)(C)c1nc2c3cc[nH]c(=O)c3c3cc(F)ccc3c2[nH]1 observation_type=Potency reported_result="2.96 µM (active)"
compound="Cc1ccc(O)c(C(CCN(C(C)C)C(C)C)c2ccccc2)c1 (centres undefined)" observation_type=Potency reported_result=inactive
compound=CCCCCN=C(N)NN=Cc1c[nH]c2ccc(OC)cc12 observation_type=Potency reported_result="14.8 µM (active)"
compound=C[C@H](NC(=O)[C@@H](O)c1cc(F)cc(F)c1)C(=O)N[C@@H]1C(=O)N(C)c2ccccc2-c2ccccc21 observation_type=Potency reported_result=inactive
compound=CC(C=CC1=C(C)CCCC1(C)C)=CC=CC(C)=CC(=O)Nc1ccc(O)cc1 observation_type=Potency reported_result="24.1 µM (active)"
compound=C[C@H]1COc2c(N3CCN(C)CC3)c(F)cc3c(=O)c(C(=O)O)cn1c23 observation_type=Potency reported_result=inactive
compound=CCOC(=O)N1CCN([N+]([O-])=NOc2ccc([N+](=O)[O-])cc2C#N)CC1 observation_type=Potency reported_result="1.05 µM (active)"
compound=O=C(Nc1cc2cc[nH]c2cn1)c1ccccc1 observation_type=Potency reported_result="13.2 µM (active)"
compound=O=C(O)C=Cc1ccc(Cn2ccnc2)cc1 observation_type=Potency reported_result=inactive
compound=CC(C)(C)[N+]([O-])=Cc1ccc(S(=O)(=O)O)cc1S(=O)(=O)O observation_type=Potency reported_result=inactive
compound="C[C@]12CCC(=O)C=C1[C@@H]1CC1[C@H]1[C@H]3[C@@H]4C[C@H]4[C@@]4(CCC(=O)O4)[C@@]3(C)CC[C@H]12 (some centres undefined)" observation_type=Potency reported_result="18.7 µM (active)"
compound="COc1cc(O)c2c(c1)C1OC1C[C@H](O)[C@H](O)C(=O)C=CC[C@H](C)OC2=O (some centres undefined)" observation_type=Potency reported_result="3.72 µM (active)"
compound=COc1cccc2c1C(=O)c1c(O)c3c(c(O)c1C2=O)C[C@@](O)(C(=O)CO)C[C@@H]3O[C@H]1C[C@H](N)[C@@H](O)[C@H](C)O1 observation_type=Potency reported_result="0.935 µM (active)"
compound=CNC(=O)c1cccc(-c2ccc3c(N4CCOC[C@H]4C)nc(N4CCOC[C@H]4C)nc3n2)c1 observation_type=Potency reported_result="0.0209 µM (active)"
compound=CC(C)NC[C@@H](C(=O)N1CCN(c2ncnc3c2[C@H](C)C[C@H]3O)CC1)c1ccc(Cl)cc1 observation_type=Potency reported_result="11.8 µM (active)"
compound=NC(=O)c1cccc(-c2cccc(OC(=O)NC3CCCCC3)c2)c1 observation_type=Potency reported_result=inactive
compound=COc1cc2c(Nc3ccc(Cl)c(Cl)c3F)ncnc2cc1OCC1C[C@@H]2CN(C)C[C@H]2C1 observation_type=Potency reported_result="8.33 µM (active)"
compound=NC(=O)c1ncn([C@@H]2O[C@H](CO)[C@@H](O)[C@@H]2O)c1O observation_type=Potency reported_result=inactive
compound=CC(=O)ON=C1C(c2c(O)[nH]c3cc(Br)ccc23)=Nc2ccccc21 observation_type=Potency reported_result="16.6 µM (active)"
